# ASSAYED TARGET: F508delCFTR (Homo sapiens, UniProt P13569, DEL508-508)
# Construct: expressed in transfected cells; host or cells: CFBE41o- human lung-derived epithelial cells (CFBE41o-F508delCFTR-HRP), doxycycline-inducible
# Sequence (P13569 with tags, fused parts or gaps DEL508-508): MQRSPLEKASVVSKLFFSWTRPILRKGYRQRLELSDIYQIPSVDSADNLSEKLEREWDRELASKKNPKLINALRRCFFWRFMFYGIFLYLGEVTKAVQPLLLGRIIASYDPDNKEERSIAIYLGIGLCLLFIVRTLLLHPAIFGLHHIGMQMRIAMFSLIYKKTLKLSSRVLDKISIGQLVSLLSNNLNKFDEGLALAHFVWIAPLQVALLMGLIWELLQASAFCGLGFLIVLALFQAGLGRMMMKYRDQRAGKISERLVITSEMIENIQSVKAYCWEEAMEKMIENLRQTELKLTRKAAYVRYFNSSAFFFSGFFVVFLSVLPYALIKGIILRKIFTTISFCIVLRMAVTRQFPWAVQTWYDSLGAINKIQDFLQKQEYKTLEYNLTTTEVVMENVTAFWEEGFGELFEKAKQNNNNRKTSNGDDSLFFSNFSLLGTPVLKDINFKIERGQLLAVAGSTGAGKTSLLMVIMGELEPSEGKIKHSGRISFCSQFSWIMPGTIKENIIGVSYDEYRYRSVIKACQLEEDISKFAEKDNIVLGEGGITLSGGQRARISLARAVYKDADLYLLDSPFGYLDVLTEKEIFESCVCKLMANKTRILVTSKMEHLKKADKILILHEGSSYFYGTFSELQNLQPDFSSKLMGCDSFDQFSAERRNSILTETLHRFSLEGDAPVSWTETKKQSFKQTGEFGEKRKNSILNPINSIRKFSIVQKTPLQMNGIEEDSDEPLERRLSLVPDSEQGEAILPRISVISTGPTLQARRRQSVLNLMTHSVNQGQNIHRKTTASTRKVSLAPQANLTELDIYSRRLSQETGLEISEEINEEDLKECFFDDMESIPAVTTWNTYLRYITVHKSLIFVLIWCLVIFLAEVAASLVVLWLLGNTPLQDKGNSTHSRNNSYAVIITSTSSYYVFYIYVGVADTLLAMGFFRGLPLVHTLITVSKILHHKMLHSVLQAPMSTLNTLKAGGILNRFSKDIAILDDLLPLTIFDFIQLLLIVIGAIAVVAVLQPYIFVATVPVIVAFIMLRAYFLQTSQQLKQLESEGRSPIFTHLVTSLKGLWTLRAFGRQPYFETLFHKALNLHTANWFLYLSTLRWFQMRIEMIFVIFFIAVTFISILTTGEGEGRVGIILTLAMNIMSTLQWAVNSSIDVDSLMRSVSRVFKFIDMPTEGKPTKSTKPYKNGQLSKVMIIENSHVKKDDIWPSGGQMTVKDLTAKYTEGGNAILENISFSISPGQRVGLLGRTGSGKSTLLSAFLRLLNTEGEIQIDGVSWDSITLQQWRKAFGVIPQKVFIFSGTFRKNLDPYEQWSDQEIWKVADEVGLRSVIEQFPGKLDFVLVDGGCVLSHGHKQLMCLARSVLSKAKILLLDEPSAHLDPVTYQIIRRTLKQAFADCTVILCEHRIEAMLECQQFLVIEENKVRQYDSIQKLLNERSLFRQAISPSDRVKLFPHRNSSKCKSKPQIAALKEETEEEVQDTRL
# ASSAY: Cell Surface Expression-Horse Radish Peroxidase (CSE-HRP) assay, test compound without co-corrector;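 further: percent of on-plate 2 µM positive control corrector response over DMSO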
# Assay type: cell-based
# EXPERIMENTAL PARAMETERS: maximum at any tested concentration, normalized to positive control, without co-corrector
Catalogue of compounds with associated Emax

Previously resolved entries follow.
INSERT INTO assay_data (compound, metric_name, measured) VALUES
  ('CCCS(=O)(=O)NC(=O)C1CCc2c(OC)cccc21 (stereo not drawn)', 'Emax', '< 50%'),
  ('COc1cccc2c1CCC2C(=O)NS(=O)(=O)c1sc(C)nc1C (stereo not drawn)', 'Emax', '< 50%');

We next turn to a different compound, shown below.
## Input Using the record for CC1(C(=O)NS(=O)(=O)c2cccc3ccccc23)CCc2ccc(OC(F)(F)F)cc21 (stereo not drawn) , report its Emax.
## Output ≥ 150%

Values were extracted from patent US20180244611A1.
